Kallikrein-1 (Homo sapiens) measurements of IC50, listed per entry.
Sequence (P06870 whole entry): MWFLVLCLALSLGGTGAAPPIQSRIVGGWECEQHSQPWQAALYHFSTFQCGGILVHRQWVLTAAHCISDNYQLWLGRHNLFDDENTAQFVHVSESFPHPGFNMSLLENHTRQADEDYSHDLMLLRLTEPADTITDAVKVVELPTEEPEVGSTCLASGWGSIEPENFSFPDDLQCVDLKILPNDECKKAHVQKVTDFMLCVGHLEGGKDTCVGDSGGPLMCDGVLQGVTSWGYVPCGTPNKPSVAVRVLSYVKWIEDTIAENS

In [3]: df
Out[3]:
                    structure_smiles_string  recorded_endpoint  assay_value
0  COCc1nn(Cc2cnc(N3CCCC3)nc2)cc1C(=O)NCc1c(-n2ccnn2)ccc(OC)c1F               IC50      > 40 µM
1  COCc1nn(Cc2cnc(N3CCCC3)nc2)cc1C(=O)NCc1c(-n2cc(C)nn2)ccc(OC)c1F               IC50      > 40 µM

Now look at this one.
Param item: COCc1nn(Cc2ccc3c(c2)CN(C(C)C)C3)cc1C(=O)NCc1c(-n2cc(C)nn2)ccc(OC)c1F ; param system: Kallikrein-1 (Homo sapiens); output IC50: > 40 µM
